Target: NUDT7 (Homo sapiens, UniProt P0C024)
Construct: residues 14-235, E. coli, pNIC28-Bsa4, N-terminal His6 tag removed by TEV, construct 26672 Da
Sequence (P0C024 14-235): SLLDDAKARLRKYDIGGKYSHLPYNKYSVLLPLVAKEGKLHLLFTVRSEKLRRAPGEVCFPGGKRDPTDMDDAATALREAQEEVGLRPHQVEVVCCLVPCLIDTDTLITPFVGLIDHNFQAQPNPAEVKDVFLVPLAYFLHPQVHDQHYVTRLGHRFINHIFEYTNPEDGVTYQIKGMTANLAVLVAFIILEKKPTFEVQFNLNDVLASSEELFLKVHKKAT
Design: Intact protein LC/MS covalent labelling, fragments in pools of five, 200 uM each, 4 °C
Settings: 24 h, 4 °C, pool of five; 200 µM; covalent
READOUT: NUDT7
// keep it numeric: no unit symbol after the value

Please tell me: NUDT7 of CC(=O)c1oc2ccccc2c1NC(=O)CCl [PCM-0102918] , system NUDT7 (Homo sapiens, UniProt P0C024)?
0.39

Entry COc1ccccc1NC(=O)CCl [PCM-0102236] , system NUDT7 (Homo sapiens, UniProt P0C024): what NUDT7 was measured?
0

For NUDT7 (Homo sapiens, UniProt P0C024), provide NUDT7 of Cc1ccccc1CN1CCCN(C(=O)CCl)CC1.Cl [PCM-0102911] please.
0

Find the measured NUDT7: item C=CC(=O)N(C1CC1)C1CC(=O)NC1=O (stereo not shown) [PCM-0102646] , target or system NUDT7 (Homo sapiens, UniProt P0C024).
0

Form field - read-out: NUDT7; system: NUDT7 (Homo sapiens, UniProt P0C024); submitted item: O=C(CCl)Nc1ccccc1Cl [PCM-0102152]
0

Observed NUDT7 on NUDT7 (Homo sapiens, UniProt P0C024) for C=CC(=O)N1CCOC2(CCc3ccccc32)C1 (stereo not shown) [PCM-0102439] , please.
0

Recall the recorded NUDT7 for Cc1c(C#N)c(NC(=O)CCl)n(-c2cccc(F)c2)c1C [PCM-0102146] with NUDT7 (Homo sapiens, UniProt P0C024) and state it.
0.58

* * *

Target: OTUB2 (OTUB2A) (Homo sapiens, UniProt Q96DC9)
Construct: full length residues 1-234, E. coli BL21(DE3)-R3, His tag removed by TEV, construct 27312 Da
Sequence (Q96DC9 whole entry, the tested form may be a part): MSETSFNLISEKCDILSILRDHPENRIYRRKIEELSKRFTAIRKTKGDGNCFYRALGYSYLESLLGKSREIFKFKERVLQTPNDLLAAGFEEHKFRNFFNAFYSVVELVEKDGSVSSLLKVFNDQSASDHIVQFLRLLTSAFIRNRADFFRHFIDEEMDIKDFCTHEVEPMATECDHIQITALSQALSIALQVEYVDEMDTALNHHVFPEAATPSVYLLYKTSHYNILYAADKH
Design: Intact protein LC/MS covalent labelling, fragments in pools of five, 200 uM each, 4 °C
Settings: 24 h, 4 °C, pool of five; 200 µM; covalent
Method: Incubations were performed at 200 μM for each compound and 2 μM of protein (10 μM for BSA) for 24 h at 4 °C with moderate shaking. […] Following incubation, we used intact protein [compound left out] chromatography/mass spectrometry (LC/MS) to identify the fragments and quantify their labeling (Figure 3A). […]
Field: OTUB2. Provide a value for each of the molecules that follow.
Keep it simple and answer with nothing but the number.

For the molecule shown here, O=C(CCl)NCC1Cc2ccccc2O1 (stereo not drawn) [PCM-0103020] , give the reported OTUB2.
0

Given the entry C=CC(=O)N1CCC(S(=O)(=O)N2CCCC2)C1 (stereo not drawn) [PCM-0102701] , report its measured OTUB2.
0

Look up OTUB2 for this molecule: O=C(CCl)Nc1cccc2c1N=S=N2 [PCM-0102329]
0

What measured OTUB2 goes with O=C(CCl)Nc1cc2c(cc1Br)OCCO2 [PCM-0102299] ?
0.67

Suppose we examine the molecule O=C(CCl)N1CCNC1=O [PCM-0102338] ; what OTUB2 value has been reported?
0

Would you kindly share the measured OTUB2 for C=CC(=O)NCc1ccon1 [PCM-0102482] ?
0

Could you tell me which OTUB2 is on file for Cc1ccc(S(=O)(=O)N2CCN(C(=O)CCl)CC2)cc1 [PCM-0102759] ?
0

Look up OTUB2 for this molecule: O=C(CCl)N1CCOCC1C1CC1 (stereo not drawn) [PCM-0102870]
0

Fill blank: measured OTUB2 of the molecule O=C(CCl)NNC(=O)C1COc2ccccc2O1 (stereo not drawn) [PCM-0102384] is ____.
0.27

Consider the molecule shown here: O=C(CCl)Nc1nc2ccc(Br)cc2s1 [PCM-0102126] What is its recorded OTUB2?
0.12

OTUB2 lookup needed for Cc1ccc(C(C)NC(=O)CCl)cc1C (stereo not drawn) [PCM-0102270] , thanks.
0.51

Which measured OTUB2 value corresponds to CC(c1ccc(F)cc1)N(C)C(=O)CCl (stereo not drawn) [PCM-0102783] ?
0

Fill blank: measured OTUB2 of the molecule O=C(CCl)NC(=O)c1cccc2ccccc12 [PCM-0102694] is ____.
0

Fill in: OTUB2 of O=C(CCl)N1CCN(c2ncc(C(F)(F)F)cc2Cl)CC1 [PCM-0102378] is ___
0.05

Given the entry CC(NC(=O)CCl)c1ccccc1Br (stereo not drawn) [PCM-0102256] , report its measured OTUB2.
0.29

Given CN(Cc1cc(Cl)cc(Cl)c1)C(=O)CCl [PCM-0102678] , state its recorded OTUB2.
0

Find the recorded OTUB2 belonging to C=CC(=O)Nc1cc(-c2ccnn2C)ccc1C [PCM-0102543] and report it.
0

Look up OTUB2 for this molecule: CC1(C)C2CCC1(C)C(NC(=O)CCl)C2 (stereo not drawn) [PCM-0102315]
0

May I ask what OTUB2 has been recorded for CC1CCc2c(sc(NC(=O)CCl)c2C(N)=O)C1 (stereo not drawn) [PCM-0103029] ?
0

So what's the measured OTUB2 for this one? CC1CCc2ccccc2N1C(=O)CCl (stereo not drawn) [PCM-0102822]
0

# lookup: OTUB2 of O=C(CCl)Nc1cccc(C(=O)N2CCSCC2)c1 [PCM-0103072]
0

Give its OTUB2 value. Item: C=CC(=O)N1CCC(CS(C)(=O)=O)C1 (stereo not drawn) [PCM-0102765]
0

Given the molecule Cl.O=C(CCl)N1CCN(C2CCS(=O)(=O)C2)CC1 (stereo not drawn) [PCM-0102405] , what is its reported OTUB2?
0

I would be grateful if you could share the reported OTUB2 for O=C(CCl)N1CCCc2cc(S(=O)(=O)N3CCCC3)ccc21 [PCM-0102625] .
0

OTUB2 lookup needed for C=CC(=O)N1Cc2ccccc2OC(C)(C)C1 [PCM-0102927] , thanks.
0

Item C=CC(=O)N1CCCC(c2nc3c(s2)CCCC3)C1 (stereo not drawn) [PCM-0103069] has what recorded OTUB2?
0

Query: OTUB2; subject: N#CC(c1cccs1)N1CCN(C(=O)CCl)CC1 (stereo not drawn) [PCM-0102223]
0

* * *

Assay: in vitro
Set-up: species or system HB2, CCD841
Details: human, hek293 cells
Field: viability at 48 h, 10 µM. Provide a value for each of the compounds that follow.
Hi! Could you send only the number? It should be in %, unit omitted.

Requested field: viability at 48 h, 10 µM. Item: "CC(C)N(C(=O)CCl)C(C)C"
110

Requested field: viability at 48 h, 10 µM. Item: "C=CC(=O)NC(=O)NC12CC3CC(CC(C3)C1)C2"
42

Give its viability at 48 h, 10 µM value. Item: "COC(=O)c1c(NC(=O)CCl)sc2c1CCCCC2"
21.8

Which viability at 48 h, 10 µM reading was recorded for the compound CC1CCC(NC(=O)CCl)CC1 (stereo not drawn) ?
72.4

Returns the measured viability at 48 h, 10 µM for the input compound. Input: "Cl.O=C(CCl)N1CCN(Cc2cccc(Cl)c2)CC1"
7.9

Which viability at 48 h, 10 µM value is on record for "O=C(CCl)Nc1ccccc1N1CCCCC1" ?
97.5

# input compound: "Cl.O=C(CCl)Nc1ccc(Cl)cn1" ; wanted: its viability at 48 h, 10 µM
113

Which viability at 48 h, 10 µM is listed for "O=C(CCl)NCC12CC3CC(CC(Br)(C3)C1)C2" ?
99.3

Consider the compound shown here: "CCc1cccc(C)c1NC(=O)CCl" What is its recorded viability at 48 h, 10 µM?
101

Field request: viability at 48 h, 10 µM | item: "C=CC(=O)Nc1cccc(Cl)c1"
80.4

Returns the measured viability at 48 h, 10 µM for the input compound. Input: "C=CC(=O)NCc1ccc2c(c1)C(C)(C)C(=O)N2"
92

Would you kindly share the measured viability at 48 h, 10 µM for "COCC(=O)NNC(=O)CCl" ?
97.1

viability at 48 h, 10 µM for "O=C(Nc1ccccc1)NN(C(=O)CCl)c1ccccc1" ?
0.8

Query (compound): "Cc1cccc(C(=O)O)c1NC(=O)CCl" ; field requested: viability at 48 h, 10 µM
104

Find the recorded viability at 48 h, 10 µM belonging to COc1cccc(C2CCCN2C(=O)CCl)c1 (racemic) and report it.
3.6

viability at 48 h, 10 µM lookup needed for "O=C(CCl)NNC(=O)C1CC1" , thanks.
90.2

For the compound "CC(=O)c1sc2nc(C)cc(C)c2c1NC(=O)CCl" , what viability at 48 h, 10 µM is on record?
101

Looking for the measured viability at 48 h, 10 µM of C=CC(=O)N1Cc2c(OC)ccc(OC)c2C(O)C1 (stereo not drawn) , can you help?
119

Fill blank: measured viability at 48 h, 10 µM of the compound C=CC(=O)N1CCc2sccc2C1c1cccs1 (stereo not drawn) is ____.
98.7

Please give the measured viability at 48 h, 10 µM for this compound: "O=C1CN(C(=O)CCl)c2ccccc2N1"
61.4

viability at 48 h, 10 µM for "O=C(CCl)N1CCC(c2ccccc2)=N1" ?
32.7

Requested read-out: viability at 48 h, 10 µM. Entry: "O=C(CCl)Nc1cccc2c1N=S=N2"
19.9

Which measured viability at 48 h, 10 µM value corresponds to "N#Cc1c2c(n(-c3ccccc3)c1NC(=O)CCl)CCCC2" ?
7.6

What value of measured viability at 48 h, 10 µM is listed for "COC(=O)c1ccc(NC(=O)CCl)cc1" ?
3.8

Which viability at 48 h, 10 µM reading was recorded for the compound CC1(c2ccccc2)NC(=O)N(NC(=O)CCl)C1=O (stereo not drawn) ?
103

Query (compound): "COc1ccc(NC(=O)CCl)cn1" ; field requested: viability at 48 h, 10 µM
44.3

Need viability at 48 h, 10 µM, item "O=C(CCl)N1CCSc2ccccc21"
22.4

What value of measured viability at 48 h, 10 µM is listed for C=CC(=O)N1CCCC2(CCS(=O)(=O)C2)C1 (stereo not drawn) ?
98.9

Reported viability at 48 h, 10 µM for "Cc1nc(NC(=O)CCl)sc1-c1ccccc1" : what is it?
26.7

What does the record list as viability at 48 h, 10 µM for "C=CC(=O)N1CCC(N)CC1.Cl" ?
124

May I ask what viability at 48 h, 10 µM has been recorded for "C=CC(=O)N1CCN(C(=O)c2ccc(Br)o2)CC1" ?
84.7

Give its viability at 48 h, 10 µM value. Item: "CCN1CCC(NC(=O)CCl)CC1.Cl"
66.8

Need viability at 48 h, 10 µM of "CN(C)S(=O)(=O)c1ccc2c(c1)CCCN2C(=O)CCl" , thanks.
2.2

Look at this compound and give its reported viability at 48 h, 10 µM. "CCc1cc(C(=O)NNC(=O)CCl)sc1C"
75.8

What value of viability at 48 h, 10 µM has been reported for the following compound? "O=C(CCl)N1CCCc2cc(S(=O)(=O)N3CCCC3)ccc21"
2.5

Need viability at 48 h, 10 µM of C=CC(=O)NC1CCCc2cnn(C(C)C)c21 (stereo not drawn) , thanks.
96.8
